The values you see were collected from the Human Domainome abundance scans (Beltran et al. 2025).

B1: Far upstream element-binding protein 2, residues 142 to 214; numbered along this chain, Q92945 (parent)
chain: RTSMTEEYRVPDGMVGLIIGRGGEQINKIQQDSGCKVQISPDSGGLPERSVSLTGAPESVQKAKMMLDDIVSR

Variants of: B1
Test: abundance fitness (aPCA) (normalised: wild type 0, dead -1); higher = more abundant; growth selection in yeast, the domain comes from the species named
Details: Homo sapiens
Listing: abundance fitness of selected variants
Readout: abundance fitness

Mutation Notation | Data Value
G22M | -0.115
T54K | -0.16
P57T | -0.325
D32T | -0.074
E48Q | -0.038
A63L | -1.46
K64S | -0.553
L46I | -0.145
D42W | -0.203
E58F | -0.405
K28L | -0.239
R21E | 0.088
D69I | -0.262
S40N | 0.097
S59W | -0.968
T54D | -0.424
P57F | -0.357
M66D | -0.529
G44V | -0.133
A56E | -0.003
K36D | 0.021
K36V | -0.001
